Property: gcPBM binding intensity (ln); scope: individual sequences
Test system: PfHDP1 homeodomain (GST-tagged)
Assay: gcPBM binding intensity (ln(normalized median fluorescence intensity)); higher = stronger DNA binding
In all, about 25,000 sequences were measured (“ln(normalized median fluorescence intensity)”: median about 6.7, highest 2% from about 10 on). The sample as a whole holds a higher share of the highest values than the screen did.
measurement_type: gcPBM binding intensity (ln)

[[record]]
sequence_data = "ATTTTTTTTTGTGTATATAAATAAATAAATATATAT [GTGCAC_negctrl_site603]"
observed = 6.47

[[record]]
sequence_data = "ATAATGAACAAAGTAGTGCACTTTCCTTATCTTTTC"
observed = 10.7

[[record]]
sequence_data = "AACATTTTAAAACAGACACACACCAAAAAAAAAAAA [CACACA_site257]"
observed = 6.26

[[record]]
sequence_data = "ATATATTTTATACATACACACATATATATATTTTTT [CACACA_site3940]"
observed = 6.83

[[record]]
sequence_data = "AAAGGATTTATACTAGTGCAAAAATATAAAAATATA"
observed = 9.12

[[record]]
sequence_data = "ATATATTTGATAAGAGTGCACAAATACATACATACA [GTGCAC_site9704]"
observed = 9.65

[[record]]
sequence_data = "AAGCCTTAAAAGGAAAGTACGTATATATATATATAT [XGTACX_site8559]"
observed = 9.48

[[record]]
sequence_data = "TTATTTTCTTTCTATGCACACGCACGTATTTGCCCA [CACACA_site9104]"
observed = 9.79

[[record]]
sequence_data = "ATGATATGCAATTTAGTGCATAACAAAATTGGTATA"
observed = 10.5

[[record]]
sequence_data = "TACATTTTTATTTTTACACACATATTTATTTATATA [CACACA_site6609]"
observed = 7.06

[[record]]
sequence_data = "TTTTTATATTTTTGCACACATTCTTTACTCTTCAAA [CACACA_site2210]"
observed = 10.4

[[record]]
sequence_data = "ATCTAAAAATTTTACGCACACAAGTAAAAAAAAAAA [CACACA_site2485]"
observed = 7.14

[[record]]
sequence_data = "ATTGTATATGTATATGCACACAATATATGTACTTAT [CACACA_site2611]"
observed = 9.66

[[record]]
sequence_data = "TTTTTCTTTATTAGCACACATAATATTATATATGTG [CACACA_site2629]"
observed = 7.1

[[record]]
sequence_data = "AAAATTAAAATAGTAATACACACTTCATAGGAAATG [CACACA_site1762]"
observed = 6.02

[[record]]
sequence_data = "TTATAAAAAATTTTAGTGCATATATGATTTATATAT [GTGCAC_site9831]"
observed = 9.44

[[record]]
sequence_data = "CCTTTCCTTTTATAAGTGCATATAACAAATGTATAC [GTGCAC_site9872]"
observed = 8.03

[[record]]
sequence_data = "GTATATAATTTATGTGCACACACTCCTATTTTTAGC [CACACA_site49]"
observed = 11.1

[[record]]
sequence_data = "AATATTTATTTTTTTGCACACATATTTTACATTTTA [CACACA_site3182]"
observed = 10.3

[[record]]
sequence_data = "ATTAAAAATTATATTTTATAAAAATTAAAAGAAATA [CACACA_negctrl_site65]"
observed = 6.47

[[record]]
sequence_data = "TTTATGTATTTTTATGCACACATGCGTGGCTTATAT [CACACA_site4374]"
observed = 10.4

[[record]]
sequence_data = "TTTTCATTTTTCTTTACACACATATATTTATTTATA [CACACA_site7119]"
observed = 7.15

